Tested on: Setaria faberi (SETFA)
Assay: Pre-emergence herbicidal activity, glasshouse pot test
Format: in vivo
Conditions: Setaria faberi, 480 h, rate 500 g/ha, evaluated after 20 days, read-out: Pre-emergence activity, SETFA (100=total damage to plant; 0=no damage to plant)
Recorded pest or weed control at 500 g/ha by entry
Please state the figure in %; there is no need to write the unit.

CCc1cc(C)cc(CC)c1C1=C(O)CC(COCCOC)CC1=O (stereo not shown) [Compound T24] | 100

Observed pest or weed control at 500 g/ha on Setaria faberi (SETFA) for CCc1cc(C)cc(CC)c1C1=C(OC(=O)CC(C)(C)C)CC2(CCOCC2)CC1=O [Compound P6] , please.
70

Value wanted: pest or weed control at 500 g/ha (Setaria faberi (SETFA)) of entry CCC[S+]([O-])C(C)CC1CC(=O)C(c2c(C)cc(C)cc2C)=C(O)C1 (stereo not shown) [Compound T41]
80

Record lookup: for Setaria faberi (SETFA), what pest or weed control at 500 g/ha belongs to CCc1cc(C)cc(CC)c1C1=C(OS(C)(=O)=O)CC2(CCOCC2)CC1=O [Compound P24] ?
90

Recorded pest or weed control at 500 g/ha for CCc1cc(C)cc(CC)c1C1=C(O)CC2(CCOCC2)CC1=O [Compound T22] with Setaria faberi (SETFA), please?
100

So what pest or weed control at 500 g/ha did C=CCCCCCCCCC(=O)OC1=C(c2c(CC)cc(C)cc2CC)C(=O)CC2(CCOCC2)C1 [Compound P47] get with Setaria faberi (SETFA)?
100

Which pest or weed control at 500 g/ha is reported with Setaria faberi (SETFA) for this entry: CSCCC1CC(=O)C(c2c(C)cc(C)cc2C)=C(O)C1 (stereo not shown) [Compound T12] ?
0

Lab request: please report pest or weed control at 500 g/ha under test system Setaria faberi (SETFA) for CCc1cc(C)cc(CC)c1C1=C(O)CC2(CCS(=O)(=O)CC2)CC1=O [Compound T53]
30

Recorded pest or weed control at 500 g/ha for Cc1ccc(-c2ccc(Cl)cc2)cc1C1=C(O)CC2(CCOCC2)CC1=O [Compound T3] with Setaria faberi (SETFA), please?
100

Find pest or weed control at 500 g/ha (Setaria faberi (SETFA)) for the entry CCCSC(C)CC1CC(=O)C(c2c(CC)cc(C)cc2CC)=C(O)C1 (stereo not shown) [Compound T32]
100
